Where these numbers come from: the supplement of paper PMC6853941

Known perturbation Mahalanobis distance of a selection of compounds
Tested on: MCF10A
measurement_protocol: perturbation Mahalanobis distance of morphological profile vs DMSO controls (Mahalanobis distance (SD units)); higher = stronger morphological change, active = 7 or more
setup_conditions: screen batch: Batch1_Mahalanobis_Distance; 72 h

Look over these answered cases.
compound="CC(C)(C#N)c1cc(Cn2cncn2)cc(C(C)(C)C#N)c1 [Anastrozole] (0.51 µM)" readout_value="3.5 (inactive)"
compound="CO/N=C(\\C(=O)N[C@@H]1C(=O)N2C(C(=O)O)=C(CSc3nnnn3C)CS[C@H]12)c1csc(N)n1 [Cefmenoxime] (183.8 µM)" readout_value="3.87 (inactive)"
compound="CC[C@H]1OC(=O)[C@H](C)[C@@H](O[C@H]2C[C@@](C)(OC)[C@@H](O)[C@H](C)O2)[C@H](C)[C@@H](O[C@@H]2O[C@H](C)C[C@H](N(C)C)[C@H]2O)[C@](C)(O)C[C@@H](C)CN(C)[C@H](C)[C@@H](O)[C@]1(C)O [Azithromycin] (6.7 µM)" readout_value="3.29 (inactive)"
compound="COc1cc(Cc2cnc(N)nc2N)cc(OC)c1OC [Trimethoprim] (43.1 µM)" readout_value="4.35 (inactive)"

## Input Quick one: perturbation Mahalanobis distance of CC(=O)c1ccc(S(=O)(=O)NC(=O)NC2CCCCC2)cc1 [Acetohexamide] (10 µM) ?
## Output 3.84 (inactive)

## Input Next compound up: CN(Cc1cnc2nc(N)nc(N)c2n1)c1ccc(C(=O)N[C@@H](CCC(=O)O)C(=O)O)cc1 [Methotrexate] (0.44 µM)
## Output 9.23 (active)

###

Tested on: MCF10A
measurement_protocol: perturbation Mahalanobis distance of morphological profile vs DMSO controls (Mahalanobis distance (SD units)); higher = stronger morphological change, active = 7 or more
setup_conditions: screen batch: Batch2_Mahalanobis_Distance; 72 h
Reply using exactly one outcome from active, inactive

Some solved entries appear below for comparison.
molecule="OC[C@H]1O[C@@H](n2cnc3c2NC=NC[C@H]3O)C[C@@H]1O [Pentostatin] (55.9 µM)" discrete_label=inactive
molecule="c1ccc([C@H]2CN3CCSC3=N2)cc1 [Levamisole] (11.7 µM)" discrete_label=inactive
molecule="CN(C)CC[C@@H](c1ccc(Cl)cc1)c1ccccn1 [Dexchlorpheniramine] (0.15 µM)" discrete_label=inactive
molecule="CN(C)C(=N)N=C(N)N [Metformin] (38.4 µM)" discrete_label=inactive
molecule="CCCCCCCN(CC)CCCC(O)c1ccc(NS(C)(=O)=O)cc1 (stereo not drawn) [Ibutilide] (0.08 µM)" discrete_label=inactive
molecule="CCOC(=O)C(C)(C)Oc1ccc(Cl)cc1 [Clofibrate] (325.5 µM)" discrete_label=inactive
molecule="c1ccc(CC2=NCCN2)cc1 [Tolazoline] (25 µM)" discrete_label=inactive
molecule="Nc1nc(NC2CC2)c2ncn(C3C=C[C@H](CO)C3)c2n1 (stereo partly drawn) [Abacavir] (74.4 µM)" discrete_label=inactive

## Input Hi, do you know how N[C@@H]1CONC1=O [D-Cycloserine] (98 µM) came out in this test?
## Output active

## Input Next molecule up: CN[C@H]1CC[C@@H](c2ccc(Cl)c(Cl)c2)c2ccccc21 [Sertraline] (3.3 µM)
## Output inactive

## Input Next molecule up: CN(C)C(=O)C(CCN1CCC(O)(c2ccc(Cl)cc2)CC1)(c1ccccc1)c1ccccc1 [Loperamide] (32 µM)
## Output inactive

## Input Next molecule up: CC(C)(Oc1ccc(Cl)cc1)C(=O)O [Clofibric Acid] (368 µM)
## Output inactive

## Input Next molecule up: CN1C[C@H]2c3ccccc3Oc3ccc(Cl)cc3[C@@H]2C1 [Asenapine] (0.07 µM)
## Output inactive

## Input Next molecule up: Nc1ncn([C@@H]2O[C@H](CO)[C@@H](O)[C@H]2O)c(=O)n1 [Azacitidine] (15.4 µM)
## Output active

## Input Next molecule up: C[N+](C)(C)CCOC(N)=O [Carbachol] (37 µM)
## Output inactive

## Input Next molecule up: CCCc1nc(C(C)(C)O)c(C(=O)OCc2oc(=O)oc2C)n1Cc1ccc(-c2ccccc2-c2nn[nH]n2)cc1 [Olmesartan Medoxomil] (8.1 µM)
## Output inactive

## Input Next molecule up: CC(C)NCC(O)COc1ccc(CC(N)=O)cc1 (stereo not drawn) [Atenolol] (18.8 µM)
## Output inactive

## Input Next molecule up: CN(C)CCCN1c2ccccc2CCc2ccccc21 [Imipramine] (6.2 µM)
## Output inactive
